Experiment: Components of the Cytosolic LPS Sensing Pathway: Gene Identification via Genome-wide siRNA Screen;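 note: robust z of the log signal after scaling to non-targeting control siRNA wells of the plate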
Conditions: RAW264.7 macrophages, IL-1a HTRF, actives lie on both sides, screened at 100 nM (by protocol), cells primed 5 h with Pam3CSK4 first
Protocol: Non-canonical inflammasome activation by cytosolic LPS is a critical component of the host response to Gram-negative bacterial infection, however we lack a comprehensive understanding of the cellular processes that control this pathway. […] Lipofectamine RNAiMAX Transfection Reagent ([…]; Invitrogen) was added in […] serum-free, antibiotic-free media to plate wells using a Thermo Scientific Matrix WellMate and Microplate Stacker. […] The plates were read on an EnVision plate reader (PerkinElmer). […]
The campaign covered roughly 53,000 sequences. About 3,700 (7%) were called active.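 Rule for the calls: active = gene knockdowns whose robust z-score for IL-1 alpha signal is at least 2 or at most -2, so actives lie on both sides; inactive = the rest.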 Only a selection was taken, and actives are over-represented in it overall.
Outcome codes: label 1 (active), label 0 (inactive)

Ordered residues: UACAUUAGUAGAAUGGAGGTT against Mageb3
Class assignment: label 0

Ordered residues: GGAAACACCUUUGAGGCUCTT against Kndc1
Class assignment: label 0

Ordered residues: GGACCUUUCUGAAGUCCAATT against Ahsp
Class assignment: label 0

Ordered residues: GGCAGAGAAUCAGCUCCUUTT against Il16
Class assignment: label 0

Ordered residues: GGUUCAACUUCACACUGAGTT against Mettl22
Class assignment: label 0

Ordered residues: GGAGGCCAAAGGACUGAUCTT against Hectd4
Class assignment: label 0

Ordered residues: GCAUUGUUUUUCUAUUCAGTT against Cfhr1
Class assignment: label 0

Ordered residues: GGGAAAACAGGUACGACUGTT against Odf1
Class assignment: label 0

Ordered residues: GGUGGUUGAACAUAAGACUTT against Zfp688
Class assignment: label 0

Ordered residues: GCCACUAAGAAUCAGACAUTT against Ryr1
Class assignment: label 0

Ordered residues: GGUUUUAUCUCUUGUGCCCTT against Myl10
Class assignment: label 0

Ordered residues: AACCAUGAUGCUUACGUUUTT against S100a10
Class assignment: label 0

Ordered residues: CCUUGUCCCUUUACCUCAATT against Plk5
Class assignment: label 0

Ordered residues: CGUACAACCUCAAGGUUCUTT against Lag3
Class assignment: label 0

Ordered residues: CCAAGAAUGUUUCCAUGUUTT against Slc12a5
Class assignment: label 0

Ordered residues: GGCUUUAAGAUCACACAAATT against Snrpa
Class assignment: label 1

Ordered residues: GGUGUCAGCGAAAAGCAGUTT against Ring1
Class assignment: label 1

Ordered residues: CCAUUGAAUCAGUUGAAGUTT against Slc5a7
Class assignment: label 0

Ordered residues: GCACUCAAAUGGUAGAUUCTT against Socs6
Class assignment: label 0

Ordered residues: GGCCCUUGUUUAAAGCCAUTT against Asns
Class assignment: label 0

Ordered residues: CGACGAACCUGAGUAUAUUTT against Canx
Class assignment: label 0

Ordered residues: GCCGUGUUCAUGAAUAAACTT against Glce
Class assignment: label 0

Ordered residues: GGGUCCUCUGAAAGUUACCTT against Fndc5
Class assignment: label 0

Ordered residues: GGUUGCGUGUGGUUACUAUTT against Herc4
Class assignment: label 0

Ordered residues: GGUGGCCAAGAAUGUGAAUTT against Cxcl17
Class assignment: label 0

Ordered residues: GGAGACUGUGGAUUUAAUUTT against Sult1a1
Class assignment: label 1

Ordered residues: GAAAUAGAGAUGCCUCUCUTT against Olfr1161
Class assignment: label 1

Ordered residues: GGACCUUUUUAUCCAACGCTT against Mcts2
Class assignment: label 0

Ordered residues: GGGCAAUUUGGAGCUUACCTT against Erbb2
Class assignment: label 0

Ordered residues: GGGUUUCAAUGGCACAAUUTT against Kif3b
Class assignment: label 1

Ordered residues: CCUUCUGUAGUUGGAAUCATT against Them5
Class assignment: label 0

Ordered residues: GGGAGGAACAUCACCUCAGTT against Vmn2r123
Class assignment: label 0

Ordered residues: GCAUUACACUUAACUGACGTT against Zfp652
Class assignment: label 0

Ordered residues: GGACGUGUUUUACAAAUACTT against Srsf1
Class assignment: label 0

Ordered residues: GGAAAUUUGUAUCCCGAGUTT against Trp53
Class assignment: label 1

Ordered residues: CGUGUUCAAAAGAGUUUUCTT against Sos1
Class assignment: label 0

Ordered residues: GGACAAGAUGAACUUUUCCTT against Pomp
Class assignment: label 1

Ordered residues: GGUCAGUGACAUUAUCAAUTT against Vmn1r237
Class assignment: label 0

Ordered residues: CCUGAGAUUUCCUAACAUCTT against Prr11
Class assignment: label 0

Ordered residues: GCUACUAAACAAGCCGGCATT against Msl1
Class assignment: label 0

Ordered residues: GGAAUGUCACUUUGACUCUTT against Arxes1
Class assignment: label 0

Ordered residues: GCCAUGUGUAUGGUAGUCUTT against Olfr1247
Class assignment: label 0

Ordered residues: GGCACCAUCUAUUAUUUUCTT against Psmc3
Class assignment: label 1

Ordered residues: GGUGAUCCUCAUAUUGGCCTT against Npy2r
Class assignment: label 0

Ordered residues: CCCAUCAAUAUCAUAUCCATT against Car7
Class assignment: label 1

Ordered residues: GGCGAGUCUACGUGACACUTT against Arrb1
Class assignment: label 0

Ordered residues: GCGAAGUUACUACAGACGUTT against Slc39a1
Class assignment: label 0

Ordered residues: GGAAAUGUUUACCUGCCAUTT against Zfp512
Class assignment: label 1

Ordered residues: GGCGAUUUACAAGCUGAAGTT against Guca1b
Class assignment: label 0

Ordered residues: GCUAGUGGUAAGUCAACCATT against Iqsec1
Class assignment: label 0

----------
Test: Components of the Cytosolic LPS Sensing Pathway: Gene Identification via Genome-wide siRNA Screen;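 note: robust z of the log signal after scaling to non-targeting control siRNA wells of the plate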
Conditions: RAW264.7 macrophages, IL-1a HTRF, actives lie on both sides, screened at 100 nM (by protocol), cells primed 5 h with Pam3CSK4 first
In all, about 53,000 sequences went through this assay and about 3,700 (7%) were called active.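 The calls were made as follows: active = gene knockdowns whose robust z-score for IL-1 alpha signal is at least 2 or at most -2, so actives lie on both sides; inactive = the rest.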 Many of the other results were omitted from the sample, so actives are more common in it than they were.
Outcome codes: YES (active), NO (inactive)

Ordered residues: CCUCUCAACCACUGACUGATT against Gpatch4
Class assignment: NO

Ordered residues: GGGUGCAUUUUAAAUACUATT against Spred2
Class assignment: NO

Ordered residues: CGUGGGACCUGGUAUGUAATT against Slc22a12
Class assignment: YES

Ordered residues: CCUUUGUCCGGUCCAUUCCTT against Hk1
Class assignment: NO

Ordered residues: GGAGAGCAUUCCCAUUGCUTT against Ddx6
Class assignment: YES

Ordered residues: GUCCUCCAUGAAGAAGCUCTT against Prm3
Class assignment: NO

----------
Assay: Components of the Cytosolic LPS Sensing Pathway: Gene Identification via Genome-wide siRNA Screen;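 note: robust z of the log signal after scaling to non-targeting control siRNA wells of the plate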
Details: RAW264.7 macrophages, IL-1a HTRF, actives lie on both sides, screened at 100 nM (by protocol), cells primed 5 h with Pam3CSK4 first
The whole screen tested about 53,000 sequences, of which about 3,700 (7%) were called active.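 The calls were made as follows: active = gene knockdowns whose robust z-score for IL-1 alpha signal is at least 2 or at most -2, so actives lie on both sides; inactive = the rest.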 This excerpt belongs to a sample that is enriched for actives.
Outcome codes: label 1 (active), label 0 (inactive)

Ordered residues: GGAUAGGGAUUGGAGAUAUTT against Stn1
Class assignment: label 0

Ordered residues: GGUGUUUGAAGAGCUGACATT against Pde6b
Class assignment: label 0

Ordered residues: GUUACCUCAGUGUUAUACUTT against Olfr45
Class assignment: label 0

Ordered residues: GGAACUGAUCUGGAAGAAUTT against Sord
Class assignment: label 0

Ordered residues: AUGGUAUACUAUUAUGCUGTT against Mup20
Class assignment: label 0

Ordered residues: GGAAUUUGAAUCACGUUUGTT against Hprt
Class assignment: label 0

Ordered residues: GGUGCUCAAAUCCUCUUGATT against Ctps
Class assignment: label 0

Ordered residues: GGCAGCCUGAACAUCAAUGTT against S100a13
Class assignment: label 0

Ordered residues: CCAUCAAGCGAUUUGUGGUTT against Rnf103
Class assignment: label 0

Ordered residues: GGUUAUAUGCAGAGGAACUTT against Arid1a
Class assignment: label 0

Ordered residues: GGAGUUUUCAGCAACAAAUTT against Fgf5
Class assignment: label 0

Ordered residues: GCACUGGAAUGUCAUCUCGTT against Casp3
Class assignment: label 1

Ordered residues: CCUCAAACUCGGUUUGAUUTT against Acp6
Class assignment: label 0

Ordered residues: GGACCAAAAGGAAAAUCCATT against Kcnj6
Class assignment: label 0

Ordered residues: GGAUCUUCAAUUCGUUGGUTT against Cachd1
Class assignment: label 1

Ordered residues: GCCUAACUAUGAAACUUCGTT against Ppp1r11
Class assignment: label 0

Ordered residues: GGAUCCAGAAGAGCAUCUCTT against Sap30
Class assignment: label 0

Ordered residues: GGAGAUCAGCUGUCUAAUGTT against Tmem237
Class assignment: label 0

Ordered residues: GGCGGAAAAAAAAGUAAUATT against Crebzf
Class assignment: label 0

Ordered residues: GGAUAUUCUUCUUAAGCAGTT against Agbl5
Class assignment: label 0

Ordered residues: GGGUGGAAAAUUUCAGUUUTT against Ube2f
Class assignment: label 0

Ordered residues: GCAAGUGCGGAAGAAAGGATT against Afap1l2
Class assignment: label 0

Ordered residues: CCCAUUGAACAGGAUGUUATT against Coq9
Class assignment: label 0

Ordered residues: GGCAAGGAGGAUGACAAAATT against Rnf113a2
Class assignment: label 0

Ordered residues: GCAGAAUAGCUGAUGACAGTT against Galnt15
Class assignment: label 0
